Entries and their IC50 values follow.
Biological target: IRAK4 kinase (Homo sapiens)
Construct: purchased Carna 09-145
Test: Compound inhibition of IRAK4 kinase activity (fluorescence microfluidic mobility shift assay)
Format: biochemical
Details: Table 2; 10 μM ATP, 6 nM IRAK4 kinase

{"molecule": "COc1cc2nn(CCC3CCN(CC(=O)N4CC5(CC(CC(=O)N[C@H](C(=O)N6C[C@H](O)C[C@H]6C(=O)N[C@@H](C)c6ccc(-c7scnc7C)cc6)C(C)(C)C)C5)C4)CC3)cc2cc1NC(=O)c1cccc(C(F)(F)F)n1", "IC50": "< 100 nM"}
{"molecule": "COc1cc2nn(CCN3CCN(CC(=O)N4CCC5(CC4)CCN(c4cccc6c4C(=O)N(C4CCC(=O)NC4=O)C6=O)CC5)[C@H](C)C3)cc2cc1NC(=O)c1cccc(C(F)(F)F)n1 (some centres unmarked)", "IC50": "< 100 nM"}
{"molecule": "COc1cc2nn(CCN3CCN(CC(=O)N4CCC5(CCC(Oc6cccc7c6C(=O)N(C6CCC(=O)NC6=O)C7=O)CC5)CC4)CC3)cc2cc1NC(=O)c1cccc(C(F)(F)F)n1 (centres unmarked)", "IC50": "< 100 nM"}
{"molecule": "CC(C)(O)c1cc2nn(CCN3CCN(CC(=O)NC4CCN(c5cccc6c5C(=O)N(C5CCC(=O)NC5=O)C6=O)CC4)C3=O)cc2cc1NC(=O)c1cccc(C(F)(F)F)n1 (centres unmarked)", "IC50": "100 to 1000 nM"}

Please look at the following molecule next.
Query: Which IC50 is reported for this molecule? COc1cc2nn(CCN3CCN(c4ccc(OCC#Cc5cccc6c5C(=O)N(C5CCC(=O)NC5=O)C6=O)cc4)CC3)cc2cc1NC(=O)c1cccc(C(F)(F)F)n1 (centres unmarked)
Reply: 100 to 1000 nM

----------
Target: IRAK4 kinase (Homo sapiens, UniProt Q9NWZ3)
Construct: purchased Carna 09-145
Sequence (Q9NWZ3 whole entry): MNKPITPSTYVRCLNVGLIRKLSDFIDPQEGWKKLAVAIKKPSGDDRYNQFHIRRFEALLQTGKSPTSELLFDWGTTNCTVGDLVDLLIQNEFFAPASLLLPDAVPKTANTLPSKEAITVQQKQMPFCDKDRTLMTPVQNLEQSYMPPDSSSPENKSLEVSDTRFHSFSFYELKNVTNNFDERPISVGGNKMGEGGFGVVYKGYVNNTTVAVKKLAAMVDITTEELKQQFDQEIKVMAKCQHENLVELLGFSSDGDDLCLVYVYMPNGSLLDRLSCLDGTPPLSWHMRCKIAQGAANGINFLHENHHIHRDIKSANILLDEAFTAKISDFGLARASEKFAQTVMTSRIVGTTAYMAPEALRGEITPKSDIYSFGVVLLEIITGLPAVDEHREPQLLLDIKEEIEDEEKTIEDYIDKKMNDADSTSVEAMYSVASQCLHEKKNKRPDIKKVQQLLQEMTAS
Assay: Compound inhibition of IRAK4 kinase activity (fluorescence microfluidic mobility shift assay)
Format: biochemical
Conditions: Table 2; 10 μM ATP, 6 nM IRAK4 kinase
Entries and their IC50 values follow.

{"compound": "COc1cc2nn(CCN3CCN(CC(=O)N4CC5(CC(CC(=O)N[C@H](C(=O)N6C[C@H](O)C[C@H]6C(=O)N[C@@H](C)c6ccc(-c7scnc7C)cc6)C(C)(C)C)C5)C4)CC3)cc2cc1NC(=O)c1cccc(C(F)(F)F)n1 [III-31]", "IC50": "< 0.1 µM"}

Query: Which IC50 is reported for this compound? Cc1ncsc1-c1ccc([C@H](C)NC(=O)[C@@H]2C[C@@H](O)CN2C(=O)[C@@H](NC(=O)C2CCC3(CC2)CCN(C(=O)CN2CCN(CCn4cc5cc(NC(=O)c6cccc(C(F)(F)F)n6)c(C(C)(C)O)cc5n4)C2=O)CC3)C(C)(C)C)cc1 [III-17]
Reply: 0.1 to 1 µM

Query: Again, but for O=C(CCCN1Cc2cc(NC(=O)c3cccc(C(F)(F)F)n3)c(Br)cc2C1=O)NCCOCCOCCNc1cccc2c1C(=O)N(C1CCC(=O)NC1=O)C2=O (stereo not shown) [III-1]
Reply: ≥ 10 µM

Query: Again, but for COc1cc2nn(CCN3C4CCC3CN(CC(=O)N3CCC5(CC3)CCN(c3cccc6c3C(=O)N(C3CCC(=O)NC3=O)C6=O)CC5)C4)cc2cc1NC(=O)c1cccc(C(F)(F)F)n1 (stereo not shown) [III-53]
Reply: < 0.1 µM

These entries and their values trace back to patent US12281098B2.
